test: Restrictive medium S. cerevisiae growth inhibition, OD615, pilot screen of yeast lifespan reduction project, restrictive growth control (AID 706); conditions: OD615, 48 h, at 10 µM, active compounds read high;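 also: modified DeaD lifespan yeast strain shifted to restrictive glucose medium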
Please respond with reported growth inhibition for every item in the list.
One number for each entry, in %.

The following molecules have reported results that may help.
MOLECULE	growth inhibition [%]
COc1ccccc1C(=O)Nc1nnc(-c2ccc3c(c2)CCCC3)o1	7.12
COc1ccccc1CNC(=O)Cn1cc2c(n1)CCCC2	-7.73
COc1ccc(N2Cc3cccc(C(=O)NC(C)CCc4ccco4)c3C2=O)cc1 (stereo not given)	-3.73

Record growth inhibition per entry; entries follow.
1. c1nnc2c3c4c(sc3ncn12)CCC4
2. CCn1cc(C(=O)NC2CCCCCC2)c(=O)c2cc(S(=O)(=O)N3CCCCC3)ccc21

Result string:
[15.2, -20.1]

---

assay: RAM signaling pathway blockade in yeast – S. cerevisiae, Pdr1DBD-CYC8 efflux-inhibited sensitized strain, primary screen (AID 1298);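 also: 0% = DMSO untreated cells without growth and 100% = 10 µM 1-NA-PP1 full growth; higher means more yeast growth rescued from 5-FOA killing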; conditions: S. cerevisiae cbk1-as DSE1-URA3 strain, 5-FOA growth OD615, 2 d; at 50 µM; active compounds read high
Decide by RAM network inhibition: equal to or exceeding 2% means 1 (yes), less means 0 (no).

Would you please look over these solved cases?
COMPOUND	CLASS_NAME
CC(=O)NC(CCS(C)(=O)=O)C(=O)Nc1ccc(Cl)c(Cl)c1 (centres undefined)	0 (no)
CN1CCN(CCNC(=O)c2cc3c(=O)n(C)c4ccccc4c3n2C)CC1	0 (no)
COc1cccc(NC(=O)CSc2nnc(Cn3c(=O)sc4ccccc43)n2C)c1	1 (yes)
COc1ccc(OC)c(CNC(=O)Cc2c(C(=O)O)[nH]c3ccccc23)c1	1 (yes)
NC(=O)CSc1nc2ccccc2n1-c1ccccc1	0 (no)
Brc1ccccc1OCCCN1CCOCC1	1 (yes)

Query string: Could you please find out whether C=CCNc1nc2c(c(=O)n(C)c(=O)n2C)n1CC has RAM network inhibition that meets 2% or exceeds it?
Result string: 1 (yes)

Query string: Could you tell me if the measured RAM network inhibition of CC(Oc1ccc(Cl)cc1Cl)C(=O)NCCCN(C)C (centres undefined) reaches 2% or more?
Result string: 0 (no)

Query string: Check if RAM network inhibition >= 2% (inclusive). Item: CCOCCCNC(=O)C(NC(=O)c1ccc2c(c1)OCO2)c1ccc(OC)cc1 (centres undefined)
Result string: 1 (yes)

---

experiment: RAM signaling pathway blockade in yeast – S. cerevisiae, Pdr1DBD-CYC8 efflux-inhibited sensitized strain, primary screen (AID 1298);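 also: 0% = DMSO untreated cells without growth and 100% = 10 µM 1-NA-PP1 full growth; higher means more yeast growth rescued from 5-FOA killing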; details: S. cerevisiae cbk1-as DSE1-URA3 strain, 5-FOA growth OD615, 2 d; at 50 µM; active compounds read high
ENDPOINT_NAME: RAM network inhibition (%)
Answers are plain numbers, in %.

COMPOUND	ENDPOINT_NAME	VAL
COc1ccc(-c2cn3c(C)c(C(=O)N4CCCc5ccccc54)sc3n2)cc1	RAM network inhibition	3.08
Cc1ccccc1C(=O)OCn1nnc2ccccc2c1=O	RAM network inhibition	2.2
N#CCCN1CCN(S(=O)(=O)c2ccc(S(=O)(=O)NC3CC3)cc2)CC1	RAM network inhibition	3.16

# batch: return RAM network inhibition for each of the 4 compounds below
1. O=C(COC(=O)c1ccccc1Oc1ccccc1)NCc1ccco1
2. COc1cc(C(=O)NCC(c2cccnc2)N2CCN(c3ccccc3)CC2)cc(OC)c1OC (centres undefined)
3. Cc1c(C(=O)N2CCCc3ccccc32)sc2nc(-c3ccccc3)cn12
4. O=S(=O)(NCCO)c1cccc2cccnc12

Result string:
1: 2.24; 2: 2.64; 3: 5.58; 4: -0.64

Take each entry in turn and give its RAM network inhibition.
1. Cn1c(SCC(=O)Nc2cc(=O)n(C)c(=O)n2C)nnc1C12CC3CC(CC(C3)C1)C2
2. CCCCn1c(=O)n(CC(=O)Nc2ccc(C)c(Cl)c2)c(=O)c2c1ncn2Cc1ccco1

Result string:
1: 3.38; 2: 1.61

---

experiment: RAM signaling pathway blockade in yeast – S. cerevisiae, Pdr1DBD-CYC8 efflux-inhibited sensitized strain, primary screen (AID 1298);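 also: 0% = DMSO untreated cells without growth and 100% = 10 µM 1-NA-PP1 full growth; higher means more yeast growth rescued from 5-FOA killing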; conditions: S. cerevisiae cbk1-as DSE1-URA3 strain, 5-FOA growth OD615, 2 d; at 50 µM; active compounds read high
What RAM network inhibition was measured for each of the following?
Give bare numbers, in %.

Here are 6 compounds together with their reported answers.
COMPOUND	MEASUREMENT_UNITS	VAL
Nc1nc2c(c3c1c(=O)oc1ccccc13)CCCCC2	%	2.05
CC(Oc1ccc(Cl)cc1Cl)C(=O)NCCN1CCOCC1 (configuration not stated)	%	1.53
Cc1ccc(CCN2CC(C(=O)NCc3cccnc3)CC2=O)cc1 (configuration not stated)	%	-0.99
COc1ccc(S(=O)(=O)Cc2ccc(C(=O)NC3CCCC3)o2)cc1	%	2.65
O=C(c1ccc2nc(N3CCOCC3)sc2c1)N1CCN(C(=O)c2ccco2)CC1	%	3.05
Cc1cc2ccccc2n1CCNC(=O)C(C)C	%	2.1

Now look at this entry.
Query string: Query (compound): CCn1cc(C(=O)NCC(=O)OC)c2cc(OC)c(OC)cc2c1=O ; field requested: RAM network inhibition
Result string: 2.3

---

experiment: Restrictive medium S. cerevisiae growth inhibition, OD615, pilot screen of yeast lifespan reduction project, restrictive growth control (AID 706); settings: OD615, 48 h, at 10 µM, active compounds read high;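 also: modified DeaD lifespan yeast strain shifted to restrictive glucose medium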
Exercise: state measured growth inhibition for each of the compounds provided.
One number for each entry, in %.

Required: growth inhibition, one value per compound below.
1. CCOC(=O)c1c(N)sc2c(O)c(Br)ccc12
2. CC(=O)Nc1sc(N)nc1-c1ccccc1
3. CCOC(=O)/C=C/S(=O)(=O)c1ccc(NC(C)=O)cc1
4. COc1ccc(C2CC3CC(c4ccccc4)N2O3)cc1 (configuration not stated)
5. Cc1nc(CNS(=O)(=O)c2ccc3ccccc3c2)cs1
6. N#CC1=C(N)Oc2c(sc3ccccc23)C1c1ccco1 (configuration not stated)

Result string:
[-1.8, 16.2, -13.2, -2.38, 3.39, -4.08]

Query string: Quick one: growth inhibition of Cc1ccc(C(=O)NCc2ccc3c(c2)OCO3)cc1N1CCCC1=O ?
Result string: 4.36

---

experiment: growth suppression of PTEN-deleted HCT116, pilot screen, cell-based, HCT116 clonal line, CellTiter-Glo (AID 824); conditions: 60 h, at 10 µM;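 also: 0% = 20 µM Hyamine control and 100% = vehicle cell control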
Records with an inconclusive call do not appear. Activity calls are given as the source filed them.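 Rule for the calls: active = viability at or below 27.92% in each of two runs, the all-compound median minus 4 SD; inconclusive = no clear call, values can overlap the other calls; inactive = the rest.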
Hello, when you answer, please use one of the following outcomes: 1.0 for active, 0.0 for inactive

These recorded examples may help you get a feel for the data.
MOLECULE	CLASS_NAME
Nc1nc(Nc2cccc(F)c2)nc2ccccc12	0.0
O=S(=O)(NCC(c1cccnc1)N1CCN(c2ccc(F)cc2)CC1)c1ccc(F)cc1 (stereo not given)	0.0
Cc1cnn(-c2ccc3nnc(-c4ccc(Br)cc4)n3n2)c1	0.0
Brc1ccc(CSc2nnc(-c3ccccn3)n2Cc2ccco2)cc1	1.0
Brc1cccc(-c2nnc3sc(CNCc4ccco4)cn23)c1	0.0

Query string: Recorded call for COc1ccc2c(Cl)c(-c3nnc(SCC(N)=O)n3C)sc2c1 ?
Result string: 0.0

Query string: How was C=CCOC(=O)COc1ccc2c(C)c(C)c(=O)oc2c1 classified in this test?
Result string: 0.0

Query string: Write down the call the test reported for this molecule. Item: O=C(Nc1cccc(F)c1)c1ccc(S(=O)(=O)N2CCCC2)cc1
Result string: 0.0

Query string: Recorded test outcome, item Cc1ccc(C2/C(=C(/O)c3ccc(Cl)cc3)C(=O)C(=O)N2CC2CCCO2)o1 (stereo not given)
Result string: 0.0

Query string: Would you mind telling me which call this test gave COc1ccc(O)c(-c2[nH]ncc2C(=O)c2ccccc2)c1 ?
Result string: 0.0

Query string: Each molecule tested received a call. Report the one for O=C(NO)c1ccc(C(=O)N(C2CCCCC2)C2CCCCC2)cc1 .
Result string: 0.0

Query string: What is the recorded call for this molecule in the test? CC(=O)c1ccc(OCCCC(=O)NCC(c2ccco2)N(C)C)cc1 (stereo not given)
Result string: 0.0

Query string: Per the records of this test, what outcome belongs to CCn1cc(C2=NC(c3ccccc3)CO2)c2ccccc21 (stereo not given) ?
Result string: 0.0

Query string: Answer briefly: the call reported for CCOc1ccc(CCNC(=O)c2nnc(Cc3ccc(F)cc3)o2)cc1OCC in this assay.
Result string: 0.0

---

experiment: Restrictive medium S. cerevisiae growth inhibition, OD615, pilot screen of yeast lifespan reduction project, restrictive growth control (AID 706); conditions: OD615, 48 h, at 10 µM, active compounds read high;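 also: modified DeaD lifespan yeast strain shifted to restrictive glucose medium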
ENDPOINT_NAME: growth inhibition (%)
One number for each entry, in %.

MOLECULE	growth inhibition / %
CC1(C)Cc2c(C#N)c(NC3CCCCC3)nc(-c3ccco3)c2CO1	-17.4
CCOc1ccccc1N(CC)C(=O)Cn1ncc2c(=O)oc3ccccc3c21	-7.42
CCn1cc(SCC(N)=O)c2ccccc21	-17.4
Cc1[nH]n2c(=O)c3c(nc2c1-c1ccc(Cl)cc1)CCC3	-8.77
COc1cc(NC(=O)C2CCC(CNc3c(N4CCCCC4)c(=O)c3=O)CC2)cc(OC)c1 (stereo not given)	-2.35

Below are some molecules; for each one, tell me its growth inhibition.
1. Cc1cc(-c2ccccc2)n2ncc(C#N)c2n1
2. CCOc1ccc(N(CC(=O)Nc2ccc(C)cc2)S(=O)(=O)c2c(C)noc2C)cc1
3. CCn1c(-c2cc(OC)ccc2OC)csc1=Nc1c(C)n(C)n(-c2ccccc2)c1=O
4. CCCc1cc(C(=O)NCc2cccs2)no1
5. Cc1cc(Nc2cccc(F)c2)n2nc(C)nc2n1
6. COc1ccc(NC(=O)c2cnc3ccccn3c2=O)cc1OC
7. CC1(C)CC(N2CCN(c3ccccc3)CC2)=CC(=[N+]2CCCC2)C1
8. COC(=O)c1cn(NC(=O)CC2CCCCC2)c(=O)c2ccccc12

Result string:
[2.26, -19.6, -22.9, 21.3, -7.6, 4.28, -20.8, 1.75]

Okay, here is my list. What is growth inhibition for each of these?
1. Cc1c(C)n(CC(O)CN2CCCCCC2)c2ccccc12 (stereo not given)
2. CCC(CC)C(=O)NCCc1cc2ccc(C)c(C)c2[nH]c1=O
3. CCN(CC)S(=O)(=O)c1ccc(-c2nnco2)cc1
4. CCOCCCNC(=O)Cc1cc(=O)[nH]c(=O)[nH]1
5. CCOC(=O)C(C)Sc1nnc(Cc2cc(=O)[nH]c(=O)[nH]2)n1-c1cccc(OC)c1 (stereo not given)
6. C=CCOc1ccc(/C(O)=C2/C(=O)C(=O)N(CCCn3ccnc3)C2c2cccs2)cc1 (stereo not given)
7. O=C(NCC1CCCO1)NC1(C(F)(F)F)Oc2ccccc2O1 (stereo not given)
8. COCCN1C=C(C(=O)OC)C(c2ccc(OC)c(OC)c2)C(C(=O)OC)=C1

Result string:
1. -19.6
2. -21.4
3. -16.6
4. -19.6
5. -10
6. 0.445
7. -16
8. -9.06

Go through the list and state growth inhibition for each entry.
1. Cn1c(Cn2c(=O)sc3ccccc32)nnc1SCc1cccc(F)c1
2. CCC(=O)c1ccc(OCC(=O)Nc2nn3cnnc3s2)cc1
3. COc1ccc(N=CC2=C(O)CC(C)(C)CC2=O)cc1
4. CCCOC(=O)C1C2C=CC3(CN(c4ccc(Cl)c(F)c4)C(=O)C13)O2 (stereo not given)
5. Oc1c(C(c2ccc(F)cc2)N2CCc3ccccc3C2)sc2ncnn12 (stereo not given)
6. COc1ccc(N2C(=O)CCC(C(=O)NCc3ccccn3)C2c2ccc(OC)c(OC)c2)cc1 (stereo not given)
7. CC12CCC(C(=O)NCc3ccco3)(OC1=O)C2(C)C (stereo not given)
8. N#CCCn1c(C(C#N)(CCC#N)CCC#N)nc2ccccc21

Result string:
1: 2.12; 2: 8.22; 3: -2.8; 4: 0.67; 5: -6.98; 6: 6.09; 7: -9.65; 8: 5.04

Query string: So what does the record say about growth inhibition for COC(=O)c1c(S(N)(=O)=O)c2ccccc2n1C ?
Result string: 2.71
